TARGET_OR_TEST_SYSTEM: human TRPA1 channel (hTRPA1) (Homo sapiens, UniProt O75762)
Sequence (O75762 whole entry): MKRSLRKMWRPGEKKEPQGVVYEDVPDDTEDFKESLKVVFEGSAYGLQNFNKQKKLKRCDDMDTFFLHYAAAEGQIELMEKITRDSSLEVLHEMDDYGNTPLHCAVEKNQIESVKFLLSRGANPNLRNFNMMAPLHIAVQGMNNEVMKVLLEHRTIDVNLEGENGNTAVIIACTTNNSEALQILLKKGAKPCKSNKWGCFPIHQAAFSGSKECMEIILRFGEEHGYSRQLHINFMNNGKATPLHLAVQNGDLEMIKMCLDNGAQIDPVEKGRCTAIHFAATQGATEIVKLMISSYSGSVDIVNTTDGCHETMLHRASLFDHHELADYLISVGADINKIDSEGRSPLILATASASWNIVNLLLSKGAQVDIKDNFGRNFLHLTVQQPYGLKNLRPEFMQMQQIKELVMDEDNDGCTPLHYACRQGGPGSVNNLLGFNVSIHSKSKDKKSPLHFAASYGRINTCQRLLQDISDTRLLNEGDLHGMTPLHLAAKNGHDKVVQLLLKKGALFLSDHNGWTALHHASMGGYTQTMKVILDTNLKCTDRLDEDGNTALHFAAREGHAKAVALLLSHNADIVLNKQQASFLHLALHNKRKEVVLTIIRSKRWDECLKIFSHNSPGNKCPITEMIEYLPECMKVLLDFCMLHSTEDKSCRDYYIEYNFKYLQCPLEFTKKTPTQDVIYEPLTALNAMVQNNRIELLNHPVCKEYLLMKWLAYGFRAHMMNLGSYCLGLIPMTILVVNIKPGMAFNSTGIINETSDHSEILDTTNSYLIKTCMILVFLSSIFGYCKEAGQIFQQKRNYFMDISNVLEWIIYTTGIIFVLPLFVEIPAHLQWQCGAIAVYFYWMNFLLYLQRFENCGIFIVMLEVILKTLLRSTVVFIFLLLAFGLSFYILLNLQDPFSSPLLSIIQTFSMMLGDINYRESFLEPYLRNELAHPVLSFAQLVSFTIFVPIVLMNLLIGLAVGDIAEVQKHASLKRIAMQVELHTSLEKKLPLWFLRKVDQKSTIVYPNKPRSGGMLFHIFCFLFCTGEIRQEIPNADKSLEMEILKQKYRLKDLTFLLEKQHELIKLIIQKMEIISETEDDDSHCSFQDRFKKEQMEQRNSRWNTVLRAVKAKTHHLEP
ASSAY: whole-cell patch clamp in hTRPA1-HEK cells vs control cells; calcium imaging
pEC50: −log10 of the molar value.
METRIC_NAME: pEC50

                                   molecule  numeric_readout
0  Oc1c(Cl)c(Cl)c(Cl)c(Cl)c1Cl [PCP, 2,3,4,5,6-pentachlorophenol]             4.82
